Target: mouse TAAR1 (Mus musculus, UniProt Q923Y8)
Construct: expressed in transfected cells; host or cells: HEK293 (ATCC # CRL-1573), stably transfected with pIRESneo2 expression plasmid
Sequence (Q923Y8 whole entry): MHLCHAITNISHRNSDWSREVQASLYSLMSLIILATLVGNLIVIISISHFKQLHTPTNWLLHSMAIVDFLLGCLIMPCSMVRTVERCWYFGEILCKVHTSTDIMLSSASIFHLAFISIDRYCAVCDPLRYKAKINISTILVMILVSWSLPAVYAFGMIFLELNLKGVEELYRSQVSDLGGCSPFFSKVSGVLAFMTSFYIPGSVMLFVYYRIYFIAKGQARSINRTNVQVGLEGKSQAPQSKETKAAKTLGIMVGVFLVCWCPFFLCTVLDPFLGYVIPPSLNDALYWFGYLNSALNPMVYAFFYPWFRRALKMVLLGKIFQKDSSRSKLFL
Experiment: Radioligand binding on membranes of HEK293 cells stably expressing TAAR1, [3H]-rac-2-(1,2,3,4-tetrahydro-1-naphthyl)-2-imidazoline
Settings: mouse TAAR1; radioligand at 60 nM; 4° C., 30 min incubation
Class key for Ki values: 0 (below 0.04 µM), 1 (0.04 µM to below 0.2 µM), 2 (0.2 µM or more)

Challenge: Category lookup for the molecule "Clc1cccc(Cl)c1SC1=NCCN1"
Response given: 0

Challenge: What do you have for "Cc1ccc(Cl)cc1N=C1NCCN1" ?
Response given: 2

Challenge: Another molecule to look at: "Cc1cccc(C(C)C)c1NC1=NCCN1"
Response given: 2

Challenge: Param item: "Brc1cccc(Br)c1N=C1NCCN1"
Response given: 2

Challenge: Next molecule up: "Cc1cccc(C)c1N=C1NCCN1"
Response given: 1

Challenge: Check "O=C(CCc1ccc(NC2=NCCN2)cc1)c1ccc2ccccc2c1" too.
Response given: 1

Challenge: Continue with "CCc1cccc(C)c1NC1=NCCN1"
Response given: 1

Challenge: Note, next up: "c1ccc2c(N=C3NCCN3)cccc2c1"
Response given: 0

Challenge: What would you report for "Cc1csc(Cl)c1NC1=NCCN1" ?
Response given: 2

Challenge: Let us now turn to "CCc1cccc(CC)c1NC1=NCCN1"
Response given: 0

Every entry's value here was drawn from patent US20070197569A1.
